# assay target: Human M4 (Homo sapiens, UniProt P08173)
# Construct: expressed in transfected cells
# protocol: mAChR M4 cell-based functional assay (calcium flux, PAM mode)
# condition details: CHO-K1, % ACh maximum at 30 μM; hM4-Gqi5 CHO-K1 cells
Field: Emax at 30 µM. Provide a value for each of the molecules that follow.
State just the number; it will be interpreted in %.

Return reported Emax at 30 µM. Input molecule: [2H]C1(Oc2ccc3c(c2)OC([2H])([2H])C([2H])([2H])O3)CCN(c2nn3c(=O)ccnc3c(C)c2COC)CC1
94

Return reported Emax at 30 µM. Input molecule: [2H]C1(Oc2ccc3c(c2)OC([2H])([2H])C([2H])([2H])O3)CCN(c2nn3c(=O)c(F)c(C)nc3cc2C)CC1
81

Return reported Emax at 30 µM. Input molecule: [2H]C1([2H])Oc2ccc(O[C@H]3CCN(c4nn5c(=O)cc(COC)nc5c(C)c4C)[C@H](C)C3)cc2OC1([2H])[2H]
105

---

# assay target: Human M4 (Homo sapiens, UniProt P08173)
# Construct: expressed in transfected cells
# Sequence (P08173 1-479): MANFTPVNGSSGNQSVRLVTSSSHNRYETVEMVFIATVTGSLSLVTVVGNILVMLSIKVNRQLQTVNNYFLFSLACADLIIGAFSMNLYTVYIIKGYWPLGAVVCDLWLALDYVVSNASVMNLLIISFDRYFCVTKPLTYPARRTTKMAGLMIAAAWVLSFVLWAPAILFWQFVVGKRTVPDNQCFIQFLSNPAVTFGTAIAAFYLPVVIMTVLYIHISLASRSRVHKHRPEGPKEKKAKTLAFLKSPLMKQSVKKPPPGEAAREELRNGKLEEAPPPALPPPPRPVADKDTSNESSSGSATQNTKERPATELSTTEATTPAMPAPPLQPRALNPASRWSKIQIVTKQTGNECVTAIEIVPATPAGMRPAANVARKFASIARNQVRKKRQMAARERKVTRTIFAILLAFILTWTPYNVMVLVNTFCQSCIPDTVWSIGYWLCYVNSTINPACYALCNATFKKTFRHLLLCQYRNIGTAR
# protocol: mAChR M4 cell-based functional assay (calcium flux, PAM mode)
# condition details: CHO-K1, % ACh maximum at 30 μM; hM4-Gqi5 CHO-K1 cells
readout name: Emax at 30 µM (%)
State just the number; it will be interpreted in %.

Return reported Emax at 30 µM. Input compound: [2H]C1([2H])Oc2ccc(O[C@H]3CCN(c4nn5c(=O)ccnc5c(C)c4C)[C@H](C)C3)cc2OC1([2H])[2H] [Compound 132]
107

Return reported Emax at 30 µM. Input compound: Cc1cc2nccc(=O)n2nc1N1CCC(Oc2ccc(F)cc2)CC1 [Compound 25]
90

Return reported Emax at 30 µM. Input compound: [2H]C1([2H])Oc2ccc(OC3CCN(c4nn5c(=O)cc(C(F)(F)F)nc5c(C)c4C)CC3)cc2OC1([2H])[2H] [Compound 7]
93

Return reported Emax at 30 µM. Input compound: [2H]C1([2H])Oc2ccc(OC3CCN(c4nn5c(=O)c(F)c(C)nc5c(C)c4C)CC3)cc2OC1([2H])[2H] [Compound 16]
117

Return reported Emax at 30 µM. Input compound: [2H]C1([2H])Oc2ccc(OC3CCN(c4nn5c(=O)c(C)c(C)nc5cc4C)CC3)cc2OC1([2H])[2H] [Compound 4]
90

Return reported Emax at 30 µM. Input compound: [2H]C1(Oc2ccc3c(c2)OCO3)CCN(c2nn3c(=O)ccnc3cc2C)CC1 [Compound 68]
91

Return reported Emax at 30 µM. Input compound: Cc1cc2nccc(=O)n2nc1N1CCC(Oc2cc(F)c3c(c2)OCCO3)CC1 [Compound 135]
98

Return reported Emax at 30 µM. Input compound: CCCc1ccc(OC2CCN(c3nn4c(=O)ccnc4cc3C)CC2)cc1 [Compound 91]
70

Return reported Emax at 30 µM. Input compound: COCc1cc(=O)n2nc(N3CCC(Oc4ccc5c(c4)OCCO5)CC3)c(C)c(C)c2n1 [Compound 13]
95

Return reported Emax at 30 µM. Input compound: Cc1cc(=O)n2nc(N3CCC(Oc4ccc5c(c4)CCNC5=O)CC3)c(C)cc2n1 [Compound 82]
74

Return reported Emax at 30 µM. Input compound: [2H]C1([2H])Oc2ccc(O[C@H]3CCN(c4nn5c(=O)ccnc5cc4C)C[C@@H]3F)cc2OC1([2H])[2H] [Compound 42]
105

Return reported Emax at 30 µM. Input compound: [2H]C1(Oc2ccc3c(c2)OC([2H])([2H])C([2H])([2H])O3)CCN(c2nn3c(=O)cc(CC)nc3c(C)c2C)CC1 [Compound 98]
90

Return reported Emax at 30 µM. Input compound: [2H]C1(Oc2ccc3c(c2)OCCO3)CCN(c2nn3c(=O)cc(C(F)F)nc3cc2C)CC1 [Compound 61]
94

Return reported Emax at 30 µM. Input compound: Cc1cc2nccc(=O)n2nc1N1CCC(Oc2ccc(C(C)C)cc2)CC1 [Compound 90]
63

Return reported Emax at 30 µM. Input compound: [2H]C1(Oc2ccc3c(c2)OCCCO3)CCN(c2nn3c(=O)cc(C)nc3cc2C)CC1 [Compound 59]
85
